Below is a list of entries, each paired with its recorded z-score value.
# experimental details: qHTS for identification of novel therapeutic agents for treatment of microphthalmiaassociated transcription factor (MiT) renal cell carcinoma (RCC) (AID 1963991);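 also: curves scaled with 100% = DMSO viability and 0% = empty wells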
# test parameters: TFE3-RCC UOK109 viability, CellTiter-Glo, 48 h; measured here: UOK109 Z-AUC; stronger effect = lower value
Inconclusive results are not listed.
Keep the answer to the number alone.

Worked cases, z-score given:
[[record]]
compound = "CCOC(=O)C(C)(C)Oc1ccc(Cl)cc1"
endpoint_value = -1.29

[[record]]
compound = "NC(CO)C(=O)NNCc1ccc(O)c(O)c1O (stereo unspecified)"
endpoint_value = 0.539

[[record]]
compound = "O=C(c1ccc(F)cc1)C1CCN(CCn2c(=O)[nH]c3ccccc3c2=O)CC1"
endpoint_value = 0.795

[[record]]
compound = "COc1nc(C)nc(Cl)c1NC1=NCCN1"
endpoint_value = 0.168

[[record]]
compound = "CC[C@@]1(O)C(=O)OCc2c1cc1n(c2=O)Cc2cc3c(CN(C)C)c(O)ccc3nc2-1"
endpoint_value = -0.963


Input line: Could you please provide reported z-score for `Cn1c(=O)c2[nH]cnc2n(C)c1=O` ? Thanks!
Output line: 1.09

Input line: Could you please provide reported z-score for `CC(=O)OCC(CCn1cnc2cnc(N)nc21)COC(C)=O` ? Thanks!
Output line: 0.583
